- Experiment Summary: Relaxivity measurements at 1.41 T in water
- Type: physicochemical
- Assay Context: 37° C., normalized to Gd
- Description: Relaxivity measurements at 1.41 T were performed using a MiniSpec mq60 spectrometer (Bruker Analytik, Karlsruhe, Germany) operating at a resonance frequency of 60 MHz and a temperature of 37° C. The T1 relaxation times were determined using the standard inversion recovery (IR) method with a fixed relaxation delay of at least 5×T1. The variable inversion time (TI) was calculated automatically by the standard software of the MiniSpec mq60 (8 steps). […]
Mark t for r1 water under 5 L/mmol/s, f if at or over.

Examples with answers:
{"Molecule": "CCOCCOCCOc1ccc(CC(C(=O)O)N2CCN(CC(=O)[O-])CCN(C(C)C(=O)[O-])CCN(CC(=O)[O-])CC2)cc1.[Gd+3] (single isomer, unassigned) [Example 5]", "Assigned Class": "t"}
{"Molecule": "CCCOc1ccc(CCC(C(=O)O)N2CCN(CC(=O)[O-])CCN(CC(=O)[O-])CCN(CC(=O)[O-])CC2)cc1.[Gd+3] (centres unmarked)", "Assigned Class": "t"}
{"Molecule": "CCOCCOCCOc1ccc(CCC[C@@H](C(=O)O)N2CCN([C@@H](CO)C(=O)[O-])CCN([C@H](CO)C(=O)[O-])CCN([C@@H](CO)C(=O)[O-])CC2)cc1.[Gd+3]", "Assigned Class": "f"}
{"Molecule": "CCOCCOCCOc1ccc(CCC[C@H](C(=O)O)N2CCN([C@H](CO)C(=O)[O-])CCN([C@H](CO)C(=O)[O-])CCN([C@H](CO)C(=O)[O-])CC2)cc1.[Gd+3]", "Assigned Class": "f"}
{"Molecule": "CCOCCOCCOc1ccc(CCC[C@@H](C(=O)O)N2CCN([C@H](CO)C(=O)[O-])CCN([C@H](CO)C(=O)[O-])CCN([C@H](CO)C(=O)[O-])CC2)cc1.[Gd+3]", "Assigned Class": "f"}
{"Molecule": "CCOCCOc1ccc(CC(C(=O)O)N2CCN(CC(=O)[O-])CCN(C(COC)C(=O)[O-])CCN(CC(=O)[O-])CC2)cc1.[Gd+3] (centres unmarked)", "Assigned Class": "f"}

r1 water strictly < 5 L/mmol/s for this molecule? `CCOCCOCCOc1ccc(C[C@H](C(=O)O)N2CCN(CC(=O)[O-])CCN(CC(=O)[O-])CCN(CC(=O)[O-])CC2)cc1.[Gd+3]` t

Answer whether the molecule CCOCCOCCOc1ccc(CCCC(C(=O)O)N2CCN(CC(=O)[O-])CCN(CC(=O)[O-])CCN(CC(=O)[O-])CC2)cc1.[Gd+3] (centres unmarked) has r1 water strictly less than 5 L/mmol/s t
